System: cancer cell lines
Test: Cytotoxicity in a wide variety of cancer cell types (TC50, CellTiter-Glo, 72 or 96 hours)
Details: read-out: TC50; HT1080 cells, sarcoma; 7 DAY
metric: CC50 (nM)
# number only, unit nM dropped from output

In: API: value(readout= CC50, system= cancer cell lines, query= "O=C(NCc1cccnc1)Nc1ccc(COc2ccccc2-c2ccccc2)cc1" )
Out: 0.6

----------
Test system: cancer cell lines
Test: Cytotoxicity in a wide variety of cancer cell types (TC50, CellTiter-Glo, 72 or 96 hours)
Settings: read-out: TC50; SF-295 cells, glioma; 3 DAY
metric: CC50 (nM)
Express your answer in nM, writing the number without its unit.

In: Find CC50 (cancer cell lines) for the entry "O=C(NCc1cccnc1)Nc1ccc(COc2ccccc2-c2ccccc2)cc1"
Out: 1.5

----------
System: cancer cell lines
Test: Cytotoxicity in a wide variety of cancer cell types (TC50, CellTiter-Glo, 72 or 96 hours)
Conditions: read-out: TC50; HT29 cells, colon; 7 DAY
metric: CC50
# output: numeric value plus its unit

In: Can you look up the measured CC50 of "O=C(NCc1cccnc1)Nc1ccc(COc2ccccc2-c2ccccc2)cc1" for me?
Out: 1.1 nM

----------
System: cancer cell lines
Assay: Cytotoxicity in a wide variety of cancer cell types (TC50, CellTiter-Glo, 72 or 96 hours)
Details: read-out: TC50; A172 cells, glioma; 3 DAY
metric: CC50 (nM)
State just the number; it will be interpreted in nM.

In: For the molecule "O=C(NCc1cccnc1)Nc1ccc(COc2ccccc2-c2ccccc2)cc1" , what CC50 is on record?
Out: 1.1

----------
Test system: cancer cell lines
Experiment: Cytotoxicity in a wide variety of cancer cell types (TC50, CellTiter-Glo, 72 or 96 hours)
Details: read-out: TC50; NCI-H522 cells, NSCLC; 3 DAY
metric: CC50 (nM)
Report the figure in nM without appending any unit label.

In: Value wanted: CC50 (cancer cell lines) of entry "O=C(NCc1cccnc1)Nc1ccc(COc2ccccc2-c2ccccc2)cc1"
Out: 1

----------
Tested on: cancer cell lines
Assay: Cytotoxicity in a wide variety of cancer cell types (TC50, CellTiter-Glo, 72 or 96 hours)
Settings: read-out: TC50; KM12 cells, colon; 7 DAY
metric: CC50 (nM)
Numeric answer only, unit nM assumed.

In: Entry under review: O=C(NCc1cccnc1)Nc1ccc(COc2ccccc2-c2ccccc2)cc1 [Exemplary Compound A] . Reported CC50?
Out: 0.4

----------
System: cancer cell lines
Experiment: Cytotoxicity in a wide variety of cancer cell types (TC50, CellTiter-Glo, 72 or 96 hours)
Details: read-out: TC50; HCT116 cells, colon; 3 DAY
metric: CC50 (nM)
Report as a plain number; the unit nM is understood.

In: Item under review: "O=C(NCc1cccnc1)Nc1ccc(COc2ccccc2-c2ccccc2)cc1" . Reported CC50?
Out: 0.6

----------
Test system: cancer cell lines
Assay: Cytotoxicity in a wide variety of cancer cell types (TC50, CellTiter-Glo, 72 or 96 hours)
Settings: read-out: TC50; HOP92 cells, NSCLC; 7 DAY
metric: CC50 (nM)
Entry rule: numbers only, all in nM.

In: Given the compound O=C(NCc1cccnc1)Nc1ccc(COc2ccccc2-c2ccccc2)cc1 [Exemplary Compound A] , what is its reported CC50?
Out: 4.3

----------
Test system: cancer cell lines
Test: Cytotoxicity in a wide variety of cancer cell types (TC50, CellTiter-Glo, 72 or 96 hours)
Conditions: read-out: TC50; NCI-H929 cells, myeloma; 3 DAY
metric: CC50 (nM)
Please respond with the number in nM and leave the unit unwritten.

In: Notebook entry, cancer cell lines assay: CC50 of O=C(NCc1cccnc1)Nc1ccc(COc2ccccc2-c2ccccc2)cc1 [Exemplary Compound A] = ?
Out: 2.5
